Below, each entry is listed alongside its reported melting point.

- O=C(O)c1ccc(Cc2ccc(O)cc2)cn1: 213 to 215 °C

Tell me the measured melting point of CCn1nnc2c(sc3nc(C)ccc32)c1=O , please.
165 to 167 °C

---

Below, each entry is listed alongside its reported melting point.

Example compounds with recorded melting point:
- CN(CCCSCCCC(F)(F)C(F)(F)F)CCOc1ccc(C2=C(c3ccccc3)CCCc3cc(O)ccc32)cc1: 40 to 42 °C
- Cc1ccccc1C(=O)c1nc(Cl)ccc1[N+](=O)[O-]: 111 to 112 °C
- CCOC(=O)/C=C/c1ccc2c(=O)n(CC(C)C)c(CNC(=O)OC(C)(C)C)c(-c3ccccc3)c2c1: 147 to 148 °C
- C=CCn1c(C)nc(N2CCc3ccccc3CC2)c(C#N)c1=O: 141 to 144 °C
- CC(=O)Oc1c(C2CCN(CCCCNC(=O)c3ccc(NC(=O)c4ccc(Cl)cc4)cc3)CC2)ccc2c1CCCC2: 254 °C
- COc1ccc(-c2ccc3c(c2)C=C(C(=O)Nc2ccc(CN(C)C4CCC5(CC4)OCCO5)cc2)CCS3)cc1: 198 to 201 °C
- O=C(Nc1cccnn1)N1CCN(c2nc(-c3cccc(F)c3)cs2)CC1: 176 to 177 °C
- CSc1ncc2cc(Cc3ccccc3F)c(=O)n(C)c2n1: 156 to 159 °C

Tell me the measured melting point of COc1ccc(C(=O)C23CCCCC2C(=O)O3)cc1 (centres undefined) , please.
77.5 to 78.5 °C

Same question for CC(C)(C)OC(=O)Nc1cc(N2CCC(OCCOC3CCCCO3)CC2)c(-c2ccc(F)cc2)cc1N (racemic) please.
56 to 58 °C

Same question for CSC(=NC(=O)OC(C)(C)C)NC(=O)OC(C)(C)C please.
123 to 124 °C

Same question for O=C(O)c1ccc(C2=NCCS2)nc1 please.
234 to 235 °C

Same question for COc1ccc(OCCCCCCc2c(C)n[nH]c2C)c(Cl)c1 please.
150 to 151 °C

Same question for CCOC(=O)CCc1nc2cc3c(cc2[nH]1)NC(=O)C3(C)C please.
194 to 196 °C

Same question for CN1CCN(c2nn(S(=O)(=O)c3ccccc3)c3ccc(Cl)cc23)CC1 please.
145 to 147 °C

Same question for COCCc1sc2ncnc(N)c2c1-c1ccc(NC(=O)Cc2cccc(C)c2)cc1 please.
200 to 202 °C

Same question for CCCCCC(=O)CCC(=O)O please.
67 to 68 °C

Same question for CC(=O)NC[C@H]1CN(c2ccc(N3CCC(n4nnc(N5CCOCC5)n4)CC3)c(F)c2)C(=O)O1 please.
210 to 214 °C

Same question for O=C(Nc1ccccc1C(F)(F)F)OCc1nccn1-c1cc2cc(C(=O)O)c(=O)[nH]c2cc1Cl please.
> 300 °C

---

Below, each entry is listed alongside its reported melting point.

Example compounds with recorded melting point:
• C=CCc1cccc(C[C@H](NC(=O)OC(C)(C)C)[C@H](O)CCl)c1 = 123 to 126 °C
• CC(CCNC(=O)c1ccc(Cl)s1)n1ccnc1 (stereo unspecified) = 141 to 143 °C
• COC(=O)c1cc(CC#N)cc(CC#N)c1 = 90 to 92 °C

Tell me the measured melting point of CCCCCCc1ccc(O)c(C(=O)Nc2ccc([N+](=O)[O-])cc2)c1 , please.
154 to 155 °C

Same question for O=CN(O)C(CCCO)CS(=O)(=O)c1ccc(-c2ccc(Cl)cc2)cc1 (stereo unspecified) please.
160 °C

Same question for CCCCCCCCCCNC(=O)c1ccccc1N please.
72 to 74 °C

Same question for CC(=O)OCc1csc(=S)n1CCC(=O)O please.
144 °C

Same question for CCCc1c(OCCCOc2ccc3ccccc3c2)ccc2c1OC(CCC(=O)O)(CCC(=O)O)CC2=O please.
158 °C

Same question for COC(=O)C1=C(C)NC(C)=C(C(=O)OCCCCCCOc2cc(-c3ccccc3)[nH]n2)C1c1cccc(Cl)c1Cl (stereo unspecified) please.
68 to 71 °C

Same question for OCC#Cc1cc(Cl)cc2nc(-c3ccccc3Cl)oc12 please.
165 to 169 °C

Same question for CCOCc1nc2c(N)nc3cc(-c4ccc(F)cc4)cnc3c2n1CC1(O)CCCC1 please.
212 °C

Same question for O=C(N[C@H]1CC(=O)N(c2cc(Cc3n[nH]c(=O)c4ccccc34)ccc2F)C1=O)OCc1ccccc1 please.
121 to 127 °C

Same question for CCN1OCC(=O)N(c2cc(Cl)ccc2C)C1=S please.
119 to 121 °C

Same question for O=C(Cc1nnn[nH]1)OCc1ccccc1 please.
72 to 73 °C

Same question for CC(C)(C)OC(=O)NC[C@H]1CN(c2ccc3c(c2)CN(C(=O)OCc2ccccc2)CC3)C(=O)O1 please.
135 to 137 °C

Same question for CC(C)(C)c1ccc(C=NOCCOc2ccc(C(=O)O)c(O)c2)cc1 please.
161 to 163 °C

Same question for COc1cc(C(=O)O)cc2ccc(-c3ccc4c(c3)C(C)(C)CCC4(C)C)cc12 please.
242 °C

Same question for Cc1nc(N2CCN(Cc3ccc(C(=O)N4CCCCC4)cc3)C2=O)sc1-c1ccn[nH]1 please.
156 to 157 °C

Same question for CC(C)C[C@H](NC(=O)[C@H](Cc1c[nH]c2ccccc12)NC(=O)OC(C)(C)C)C(=O)O please.
109 to 111 °C

Same question for Cc1ccccc1-c1noc2c(Cl)c(OCC(=O)O)ccc12 please.
179 to 181 °C

Same question for CN1C(=O)C(F)N=C(c2ccccc2)c2cc(Cl)ccc21 (stereo unspecified) please.
145 to 147 °C

Same question for CCCc1c(OCCCSc2nc3ccccc3[nH]2)ccc(C(C)=O)c1O please.
149 to 150 °C
